Target: JBMan (Jack bean α-mannosidase) (Canavalia ensiformis, UniProt C0HJB3)
Construct: purchased Sigma
Sequence (C0HJB3 whole entry): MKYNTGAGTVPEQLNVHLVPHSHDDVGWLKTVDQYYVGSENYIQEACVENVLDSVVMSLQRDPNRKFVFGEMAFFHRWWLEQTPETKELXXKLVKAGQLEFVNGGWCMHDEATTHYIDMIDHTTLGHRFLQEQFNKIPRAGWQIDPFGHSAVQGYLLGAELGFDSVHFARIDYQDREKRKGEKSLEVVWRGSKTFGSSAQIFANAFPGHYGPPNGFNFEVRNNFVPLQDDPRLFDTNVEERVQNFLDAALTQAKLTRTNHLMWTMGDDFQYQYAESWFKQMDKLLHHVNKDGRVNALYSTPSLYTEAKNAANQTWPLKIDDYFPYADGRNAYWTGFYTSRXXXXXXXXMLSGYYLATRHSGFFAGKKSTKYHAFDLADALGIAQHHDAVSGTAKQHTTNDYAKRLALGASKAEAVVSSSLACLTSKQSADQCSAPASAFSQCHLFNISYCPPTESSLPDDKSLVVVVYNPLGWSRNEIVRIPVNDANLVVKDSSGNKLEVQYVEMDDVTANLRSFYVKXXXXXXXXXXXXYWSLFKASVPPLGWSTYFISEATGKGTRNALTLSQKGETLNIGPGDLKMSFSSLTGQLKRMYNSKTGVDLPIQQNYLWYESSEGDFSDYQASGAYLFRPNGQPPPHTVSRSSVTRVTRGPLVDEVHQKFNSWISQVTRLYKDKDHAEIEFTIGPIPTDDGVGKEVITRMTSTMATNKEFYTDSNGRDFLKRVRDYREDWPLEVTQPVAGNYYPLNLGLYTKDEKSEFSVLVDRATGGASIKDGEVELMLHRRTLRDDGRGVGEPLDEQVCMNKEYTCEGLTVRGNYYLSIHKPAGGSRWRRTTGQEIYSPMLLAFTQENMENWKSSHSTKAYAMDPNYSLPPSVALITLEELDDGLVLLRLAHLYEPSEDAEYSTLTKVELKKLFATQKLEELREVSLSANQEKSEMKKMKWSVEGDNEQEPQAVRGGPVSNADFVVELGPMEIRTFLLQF
Experiment: α-mannosidase inhibition assay with pNP-Man substrate, JBMan
Assay type: biochemical
Conditions: 2 mM pNP-Man, pH 5.0, 37 °C
Measurement Label: IC50 (mM)
Give the value in mM but do not write mM after it.

[
  {
    "Smiles String": "C[C@H]1NC[C@@H](O)[C@H]1O",
    "Measurement Label": "IC50",
    "Unit Abbreviation": "mM",
    "Reported Measurement": 2.88
  }
]

Okay, now this compound:
Would you mind telling me what IC50 value was observed for "C[C@@H](O)[C@@H]1[C@H](O)[C@H](O)CN1Cc1ccc(I)cc1" ?
0.164

###

Target: GMIIb (Golgi α-mannosidase) (Drosophila melanogaster, UniProt Q9VF33)
Sequence (Q9VF33 entry or part of it): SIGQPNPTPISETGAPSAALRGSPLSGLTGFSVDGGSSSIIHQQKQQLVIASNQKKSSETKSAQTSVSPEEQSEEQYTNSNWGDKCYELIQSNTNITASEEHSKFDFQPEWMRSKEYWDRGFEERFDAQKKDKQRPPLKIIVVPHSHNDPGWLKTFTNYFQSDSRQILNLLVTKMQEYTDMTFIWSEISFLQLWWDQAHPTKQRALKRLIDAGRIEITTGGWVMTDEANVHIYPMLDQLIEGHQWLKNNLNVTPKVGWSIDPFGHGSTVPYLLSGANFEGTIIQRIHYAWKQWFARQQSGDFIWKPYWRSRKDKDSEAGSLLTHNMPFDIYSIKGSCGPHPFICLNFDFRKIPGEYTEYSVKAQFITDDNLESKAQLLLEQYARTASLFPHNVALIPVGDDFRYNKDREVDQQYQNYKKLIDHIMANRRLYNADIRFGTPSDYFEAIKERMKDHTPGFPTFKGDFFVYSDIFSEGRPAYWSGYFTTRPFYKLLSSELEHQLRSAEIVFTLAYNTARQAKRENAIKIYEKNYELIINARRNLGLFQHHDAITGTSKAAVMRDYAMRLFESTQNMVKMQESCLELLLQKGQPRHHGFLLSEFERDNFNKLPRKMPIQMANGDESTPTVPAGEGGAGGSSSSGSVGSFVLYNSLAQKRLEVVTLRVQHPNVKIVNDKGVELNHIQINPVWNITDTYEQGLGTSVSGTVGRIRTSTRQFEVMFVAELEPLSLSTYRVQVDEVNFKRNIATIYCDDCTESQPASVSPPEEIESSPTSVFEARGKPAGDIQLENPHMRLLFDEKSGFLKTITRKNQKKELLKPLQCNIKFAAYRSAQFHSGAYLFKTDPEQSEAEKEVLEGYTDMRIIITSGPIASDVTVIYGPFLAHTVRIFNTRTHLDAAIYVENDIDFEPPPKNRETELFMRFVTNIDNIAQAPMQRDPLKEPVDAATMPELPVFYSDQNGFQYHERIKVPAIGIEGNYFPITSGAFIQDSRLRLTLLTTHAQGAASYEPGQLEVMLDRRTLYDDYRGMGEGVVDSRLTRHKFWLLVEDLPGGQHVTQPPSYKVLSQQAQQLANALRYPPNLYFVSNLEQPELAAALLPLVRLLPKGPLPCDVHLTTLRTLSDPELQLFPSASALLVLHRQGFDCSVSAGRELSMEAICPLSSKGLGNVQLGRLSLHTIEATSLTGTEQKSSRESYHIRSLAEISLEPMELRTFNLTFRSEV
pKi: −log10 of the molar value.
Label criterion met for high-side pKi (at or above 5) and criterion not met for low-side pKi (below it).

Recorded results for 4 compounds are shown here.
[
  {
    "Compound": "C[C@@H](O)[C@@H]1[C@H](O)[C@H](O)CN1Cc1ccc2ccccc2c1 [compound 28]",
    "Tested System": "GMIIb (Golgi α-mannosidase) (Drosophila melanogaster, UniProt Q9VF33)",
    "Discrete Label": "criterion met"
  },
  {
    "Compound": "OC[C@@H](O)[C@H]1NC[C@@H](O)[C@H]1O [DIM, 1,4-dideoxy-1,4-imino-ᴅ-mannitol, reference compound]",
    "Tested System": "GMIIb (Golgi α-mannosidase) (Drosophila melanogaster, UniProt Q9VF33)",
    "Discrete Label": "criterion met"
  },
  {
    "Compound": "C[C@@H](O)[C@H]1NC[C@@H](O)[C@H]1O [compound 29, 6-deoxy-DIM]",
    "Tested System": "GMIIb (Golgi α-mannosidase) (Drosophila melanogaster, UniProt Q9VF33)",
    "Discrete Label": "criterion met"
  },
  {
    "Compound": "C[C@@H](O)[C@@H]1[C@H](O)[C@H](O)CN1Cc1ccc(I)cc1 [compound 27]",
    "Tested System": "GMIIb (Golgi α-mannosidase) (Drosophila melanogaster, UniProt Q9VF33)",
    "Discrete Label": "criterion met"
  }
]

Okay, now this compound:
Please check the record C[C@@H](O)[C@@H]1[C@H](O)[C@H](O)CN1Cc1ccccc1 [compound 26] and state if its pKi is at or above 5.
criterion not met

###

Target: JBMan (Jack bean α-mannosidase) (Canavalia ensiformis, UniProt C0HJB3)
Construct: purchased Sigma
Experiment: α-mannosidase inhibition assay with pNP-Man substrate, JBMan
Type: biochemical
Conditions: 2 mM pNP-Man, pH 5.0, 37 °C
Measurement Label: IC50

Here's what some known entries look like.
[
  {
    "Smiles String": "C[C@@H]1[C@H](O)[C@H](O)CN1Cc1ccc(I)cc1",
    "IC50": "> 4 mM"
  },
  {
    "Smiles String": "C[C@@H]1[C@H](O)[C@H](O)CN1Cc1ccccc1",
    "IC50": "> 4 mM"
  }
]

Okay, now this compound:
Would you mind telling me what IC50 value was observed for "C[C@@H]1[C@H](O)[C@H](O)CN1Cc1ccc2ccccc2c1" ?
> 4 mM
